Readings of percent inhibition of viability for the listed compounds
# Test system: KAI3 (IL-2 2.5 ng/mL);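 also: normalised to DMSO-only wells as negative and benzethonium chloride as positive control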
# assayText: percent inhibition of viability; higher = more inhibition
# studyConditions: 72 h; 1000 nM
Value expressed in %; do not type the unit.

| compound | percent inhibition of viability (%) |
| --- | --- |
| CC[C@]1(O)C[C@H]2CN(CCc3c([nH]c4ccccc34)[C@@](C(=O)OC)(c3cc4c(cc3OC)N(C=O)[C@H]3[C@@](O)(C(=O)OC)[C@H](OC(C)=O)[C@]5(CC)C=CCN6CC[C@]43[C@@H]65)C2)C1 [Vincristine] (max concentration tested 1000 nM) | 82.8 |

Could you now consider this next compound?
input: Looking for the measured percent inhibition of viability of CC(C)NC[C@@H](C(=O)N1CCN(c2ncnc3c2[C@H](C)C[C@H]3O)CC1)c1ccc(Cl)cc1 [GDC-0068] (max concentration tested 10000 nM) , can you help?
output: 10.2
